Biological target: DaArgC (Denitrovibrio acetiphilus)
Construct: dimer
Sequence (D4H3H4 1-334): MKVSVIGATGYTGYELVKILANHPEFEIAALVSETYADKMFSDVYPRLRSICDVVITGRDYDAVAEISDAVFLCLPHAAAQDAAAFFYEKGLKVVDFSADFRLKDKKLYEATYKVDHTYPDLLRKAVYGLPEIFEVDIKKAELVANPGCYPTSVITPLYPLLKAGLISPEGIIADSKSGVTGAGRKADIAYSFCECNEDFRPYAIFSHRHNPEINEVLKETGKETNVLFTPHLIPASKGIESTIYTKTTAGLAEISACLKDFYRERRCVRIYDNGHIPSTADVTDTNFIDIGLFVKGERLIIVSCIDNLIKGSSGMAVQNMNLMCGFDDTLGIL
Assay: Nash assay of formaldehyde, inhibition of formyl phosphate reductase activity; coupled to EcAckA
Details: read-out: N-acetyl-γ-glutamate / IC50
From the text: Nash assay of formaldehyde, inhibition of formyl phosphate reductase activity; coupled to EcAckA on DaArgC
TEST READOUT: IC50
Number plus unit, in that order.

In: DaArgC (Denitrovibrio acetiphilus) / IC50 / CC(=O)N[C@@H](CCC(=O)O)C(=O)O [N-acetyl-γ-glutamate] : value?
Out: 5.1 mM
